measured on: T1, human ferroportin (SLC40A1) fused in frame with GFP, stably expressed in HEK293 cells (human, UniProt Q9NP59 1-571)
T1 sequence (looked up): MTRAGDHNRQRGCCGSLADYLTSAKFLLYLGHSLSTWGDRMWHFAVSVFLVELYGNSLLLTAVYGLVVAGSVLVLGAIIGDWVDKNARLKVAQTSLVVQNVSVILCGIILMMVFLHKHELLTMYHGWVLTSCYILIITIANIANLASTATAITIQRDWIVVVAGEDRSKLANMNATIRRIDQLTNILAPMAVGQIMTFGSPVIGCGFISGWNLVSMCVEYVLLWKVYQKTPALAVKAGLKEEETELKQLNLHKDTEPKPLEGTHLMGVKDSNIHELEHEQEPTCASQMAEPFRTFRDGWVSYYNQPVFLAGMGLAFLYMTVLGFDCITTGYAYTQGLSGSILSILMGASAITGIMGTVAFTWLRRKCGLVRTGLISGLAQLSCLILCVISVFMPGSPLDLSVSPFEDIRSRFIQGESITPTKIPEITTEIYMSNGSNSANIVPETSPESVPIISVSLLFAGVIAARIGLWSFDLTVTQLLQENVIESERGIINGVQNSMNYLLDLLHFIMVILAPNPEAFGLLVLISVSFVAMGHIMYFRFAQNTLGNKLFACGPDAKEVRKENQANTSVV
assay method text: cell-based or functional assay
Starred links: 1 amine or outer side, 2 acyl side, 3 side chain; linkers in the order of their positions; H or OH if unused. Non-standard residues stand in square brackets, D forms with d. Groups on a side chain read outwards from the residue. No end group written: not given here. *: point of attachment. bhGly(phenylbutyl) = 3-((4-phenylbutyl)amino)propanoic acid, O=C(CCN(CCCCc1ccccc1)[*:1])[*:2]; Carnitine = carnitine group on the Lys side chain, C[N+](C)(C)C[C@H](O)CC(=O)*; Dip = N[C@H](C(=O)O)C(c1ccccc1)c1ccccc1; Palmitoyl = CCCCCCCCCCCCCCCC(=O)*; β3hF = N[C@H](CC(=O)O)Cc1ccccc1; NMeK = CN[C@@H](CCCCN)C(=O)O; Isovaleryl = CC(C)CC(=O)*; Dap = NC[C@H](N)C(=O)O; Ahx = NCCCCCC(=O)O
reported property: IC50: FPN internalisation (nM)

{"binder": "Isovaleryl-KTH[Dip]PAIE[β3hF]K([Ahx-Palmitoyl])K(Carnitine)-NH2 (SMILES CCCCCCCCCCCCCCCC(=O)NCCCCCC(=O)NCCCC[C@H](NC(=O)C[C@H](Cc1ccccc1)NC(=O)[C@H](CCC(=O)O)NC(=O)[C@@H](NC(=O)[C@H](C)NC(=O)[C@@H]1CCCN1C(=O)[C@@H](NC(=O)[C@H](Cc1c[nH]cn1)NC(=O)[C@@H](NC(=O)[C@H](CCCCN)NC(=O)CC(C)C)[C@@H](C)O)C(c1ccccc1)c1ccccc1)[C@@H](C)CC)C(=O)N[C@@H](CCCCNC(=O)C[C@@H](O)C[N+](C)(C)C)C(N)=O) [[Isovaleric Acid]-K-T-H-[Dpa]-P-A-I-E-[bhPhe]-[Lys(Ahx_Palm)]-[Lys(Carnitine)]-NH2]", "readout unit": "nM", "reported": 10.7}
{"binder": "XETHXPXX (N-term Isovaleric Acid; Dpa4; Lys(Ahx_Palm)6; C-term Phenylbutyl Amine) [[Isovaleric Acid]-E-T-H-[Dpa]-P-[Lys(Ahx_Palm)]-[Phenylbutyl Amine]]", "readout unit": "nM", "reported": 5.41}
{"binder": "Isovaleryl-[Dap]TH[Dip]PAI[NMeK]([Ahx-Palmitoyl])[bhGly(phenylbutyl)] [[Isovaleric Acid]-[Dap]-T-H-[Dpa]-P-A-I-[N-MeLys(Ahx_Palm)]-[bhGly(phenylbutyl)]]", "readout unit": "nM", "reported": 597}

Just for reference, patent US20240066131A1 is where these values come from.
